Hey, just so you know, these numbers are from patent US11370785B2.

biological target: human FXR (Homo sapiens); construct: expressed in transfected cells; host or cells: HEK293 cells stably carrying a 5xGal4-response-element firefly luciferase reporter, transiently transfected with the pcDNA3.1-Gal4-FXR plasmid; assay: transient human FXR/Gal4-luciferase reporter assay; format: cell-based; conditions: Gal4-hFXR reporter in HEK293 cells; relative to 8 μM GW-4064; read-out: FXR EC50
measurement name: EC50 (nM)

* O=C(O)c1ccc(N2CCC3(CC2)CC(=Cc2c(C4CC4)nnn2-c2c(Cl)cccc2Cl)C3)nc1 | 5280
* O=C(O)c1ccc(S(=O)(=O)N2CCC3(CC2)CC(Cc2c(-c4c(Cl)cccc4Cl)noc2C2CC2)C3)cc1 | 540
* O=C(O)c1cc(OC2CCC2)c2cc(N3CCC4(CC3)CC(Cc3c(-c5ccccc5C(F)(F)F)noc3C3CC3)C4)ccc2n1 | 33
* O=C(c1cc(OC2CCC2)c2cc(N3CCC4(CC3)CC(Cc3c(-c5ccccc5C(F)(F)F)noc3C3CC3)C4)ccc2n1)N1CCCC1 | 76

a. O=C(c1cc(OC2CCC2)c2cc(N3CCC4(CC3)CC(Cc3c(-c5ccccc5C(F)(F)F)noc3C3CC3)C4)ccc2n1)N1CCOCC1
b. O=C(O)c1ccc2sc(N3CCC4(CC3)CC(=Cc3c(-c5c(Cl)cncc5Cl)noc3C3CC3)C4)nc2c1
c. O=C(O)c1ccc(N2CCC3(CC2)CC(=Cc2c(-c4c(Cl)cccc4Cl)noc2C2CC2)C3)cc1
d. CCc1cncc(Cl)c1-c1noc(C2CC2)c1C=C1CC2(CCN(c3ccc4nc(C(=O)O)cc(C(F)(F)F)c4c3)CC2)C1
IN: Could you please order the items by EC50, going from the lowest number to the highest? Response format: the labels, sorted as the prompt asks.
OUT: d, a, b, c
(d: 30 nM, a: 44 nM, b: 249 nM, c: 693 nM)

###

Molecular target: human FXR (Homo sapiens)
Construct: expressed in transfected cells; host or cells: HEK293 cells stably carrying a 5xGal4-response-element firefly luciferase reporter, transiently transfected with the pcDNA3.1-Gal4-FXR plasmid
Sequence (Q96RI1 262-486 limits assumed): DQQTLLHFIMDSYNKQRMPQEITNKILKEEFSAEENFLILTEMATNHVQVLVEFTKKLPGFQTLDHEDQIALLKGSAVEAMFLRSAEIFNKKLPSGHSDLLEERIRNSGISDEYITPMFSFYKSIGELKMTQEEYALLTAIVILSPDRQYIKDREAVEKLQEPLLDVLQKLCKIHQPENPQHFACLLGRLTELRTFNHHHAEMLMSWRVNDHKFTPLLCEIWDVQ
Assay: transient human FXR/Gal4-luciferase reporter assay
Assay type: cell-based
Details: Gal4-hFXR reporter in HEK293 cells; relative to 8 μM GW-4064; read-out: FXR EC50
measurement name: EC50 (nM)

1. CN(C)C(=O)c1cc(C(F)(F)F)c2cc(N3CCC4(CC3)CC(=Cc3c(-c5ccccc5C(F)(F)F)noc3C(F)(F)F)C4)ccc2n1
2. Cc1cc(C(=O)O)cc2sc(N3CCC4(CC3)CC(=Cc3c(-c5c(Cl)cncc5Cl)noc3C3CC3)C4)nc12
IN: Could you point out whether the larger EC50 belongs to 1 or to 2 ? Field: selected label. Fill in the label of the entry you choose.
OUT: 1
(1: 306 nM, 2: 53 nM)

P. COc1cc(C(=O)O)nc2ccc(N3CCC4(CC3)CC(=Cc3c(-c5ccccc5C(F)(F)F)noc3C3CC3)C4)cc12
Q. O=C(O)c1ncc(N2CCC3(CC2)CC(Cc2c(-c4ccccc4C(F)(F)F)noc2C2CC2)C3)cc1C(F)(F)F
IN: Could you point out whether the larger EC50 belongs to P or to Q ? Field: selected label. Fill in the label of the entry you choose.
OUT: Q

I. O=C(O)c1cc(F)c2nc(N3CCC4(CC3)CC(=Cc3c(-c5ccncc5C(F)(F)F)noc3C3CC3)C4)sc2c1
II. O=C(O)c1cc(OC2COC2)c2cc(N3CCC4(CC3)CC(=Cc3c(-c5c(Cl)cncc5Cl)noc3C3CC3)C4)ccc2n1
III. O=C(O)c1cc(C(F)(F)F)c2cc(N3CCC4(CC3)CC(=Cc3c(C(C5CC5)C5CC5)noc3C3CC3)C4)ccc2n1
IN: Could you please order the items by EC50, going from the lowest number to the highest? Response format: the labels, sorted as the prompt asks.
OUT: II, I, III
(II: 47 nM, I: 198 nM, III: 1420 nM)
